Recorded values, source patent US20220267365A1.

# assay.explanation: Test Example 2: presence of prodrug in mouse and absorbency, caudal vein administration, plasma AUC
# Assay type: in vivo, mice (Balb/cA, male)
# setup.conditions: male, Balb/cA, iv; caudal vein, 26 mg/kg, physiological saline, mouse plasma, unchanged prodrug; read-out: AUC 0-6 hr in terms of Example 1
Where a name gives a salt, the structure may show the parent alone.
reported.metric: AUC(0-t) (µM·h)
Give just the numeric value; µM·h need not be written.

Can you share its AUC(0-t)? I mean this molecule: Nc1ncnc2c1c(Br)cn2[C@@H]1O[C@H](COP(=O)(O)O)[C@@H](O)[C@@H]1F [Disodium salt of Example 1]
0.15

====

# assay.explanation: Test Example 2: presence of prodrug in mouse and absorbency, caudal vein administration, plasma AUC
# Type: in vivo, mice (Balb/cA, male)
# setup.conditions: male, Balb/cA, intravenous; caudal vein, 11 mg/kg, physiological saline, mouse plasma, unchanged prodrug; read-out: AUC 0-6 hr in terms of Example 5
# Protocol: The dosage amounts of a disodium salt of the compound of Example 1, a disodium salt of the compound of Example 2, a disodium salt of the compound of Example 3, a disodium salt of the compound of Example 4 and a disodium salt of the compound of Example 5 were set to be 26 mg/5 mL/kg, 12 mg/5 mL/kg, 12 mg/5 mL/kg, 12 mg/5 mL/kg, and 11 mg/5 mL/kg, respectively. […] The value of AUC was calculated using analysis software such as Phoenix (registered trademark), WinNonlin (registered trademark). […]
Counter-ions that a name gives are not always drawn.
reported.metric: AUC(0-t)
Write your answer as a measured quantity: the number, then the unit.

Can you share its AUC(0-t)? I mean this compound: Nc1ncnc2c1c(Cl)cn2[C@@H]1O[C@H](COP(=O)(O)O)[C@@H](O)[C@@H]1F [Disodium salt of Example 5]
0.08 µM·h
